assay: Cytotoxicity against HEK293 cells assessed as reduction in cell viability at 25 uM incubated for 48 hrs by MTT assay relative to control; format: cell-based; settings: human, read-out: INH
Below is a list of entries, each paired with its recorded cytotoxicity at 48 h, 25 µM value.
PARAMETER_MEASURED: cytotoxicity at 48 h, 25 µM

O=C1NC(=O)C2(CCCc3ccccc32)N1S(=O)(=O)c1ccc(Cl)cc1 (configuration not stated) = 10.8%
CC(=O)c1ccc(S(=O)(=O)N2C(=O)NC(=O)C23CCCc2ccccc23)cc1 (configuration not stated) = 16.3%
Cc1ccc(S(=O)(=O)N2C(=O)NC3(CCCc4ccccc43)C2=O)cc1 (configuration not stated) = 18.2%
CC(/C=C1\SC(=S)N(CC(=O)O)C1=O)=C\c1ccccc1 = 10.3%
O=C1NC(=O)C2(CCCc3ccccc32)N1S(=O)(=O)c1ccc(Br)cc1 (configuration not stated) = 12.8%
O=C1NC2(CCCc3ccccc32)C(=O)N1S(=O)(=O)c1ccc(Br)cc1 (configuration not stated) = 16.9%
O=C1NC2(CCCc3ccccc32)C(=O)N1S(=O)(=O)c1ccc([N+](=O)[O-])cc1 (configuration not stated) = 9.37%
COc1ccc(S(=O)(=O)N2C(=O)NC(=O)C23CCCc2ccccc23)cc1 (configuration not stated) = 14%
O=C1NC2(CCCc3ccccc32)C(=O)N1S(=O)(=O)c1ccc(Cl)cc1 (configuration not stated) = 12.7%
Cc1ccc(S(=O)(=O)N2C(=O)NC(=O)C23CCCc2ccccc23)cc1 (configuration not stated) = 13.9%
O=C1NC(=O)C2(CCCc3ccccc32)N1S(=O)(=O)c1ccc([N+](=O)[O-])cc1 (configuration not stated) = 23.6%
O=C1NC(=O)C2(CCCc3ccccc32)N1S(=O)(=O)c1ccc(F)cc1 (configuration not stated) = 11.9%
O=C1NC2(CCCc3ccccc32)C(=O)N1S(=O)(=O)c1ccc(F)cc1 (configuration not stated) = 11.4%
CC(=O)c1ccc(S(=O)(=O)N2C(=O)NC3(CCCc4ccccc43)C2=O)cc1 (configuration not stated) = 17.5%
CC(C)c1ccc(S(=O)(=O)N2C(=O)NC3(CCCc4ccccc43)C2=O)cc1 (configuration not stated) = 10.1%
COc1ccc(S(=O)(=O)N2C(=O)NC3(CCCc4ccccc43)C2=O)cc1 (configuration not stated) = 15.4%
CC(C)c1ccc(S(=O)(=O)N2C(=O)NC(=O)C23CCCc2ccccc23)cc1 (configuration not stated) = 14.2%
